The reported measurements were obtained from the RNAGym collection of RNA variant scans (doi:10.7554/elife.80360).

This section presents variants with their documented self-cleavage values.
B1: Hairpin Ribozyme (parent)
chain: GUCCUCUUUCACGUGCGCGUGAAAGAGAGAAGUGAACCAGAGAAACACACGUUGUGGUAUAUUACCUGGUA

- Variants of: B1
- Test Details: self-cleavage, relative activity (ratio to wild type); higher = more cleavage; co-transcriptional
Field format: numeric only.

See these solved cases before continuing.
In [3]: df
Out[3]:
   mutation_key  experimental_value
0      C3A G42U               0.249
1     C12G G25A               0.524
2      U9G U62C               0.323
3     A28U A45U               0.224
4     A11G A36U               0.512

[Q] Give the measured self-cleavage for G17U U58G
[A] 0.644

[Q] Give the measured self-cleavage for `C18A`
[A] 1.06

[Q] Give the measured self-cleavage for G1A C46A
[A] 0.134

[Q] Give the measured self-cleavage for G1U C12U
[A] 0.17

[Q] Give the measured self-cleavage for C50G C66U
[A] 0.146

[Q] Give the measured self-cleavage for G32U A71G
[A] 0.214
